Assignment: determine reported TGI for the given molecules.
System: BT-549 breast
Experiment: NCI tumour cell line growth inhibition, 48 h

Use the examples below as a reference point.
molecule | subject-of-test | TGI
Cc1ccc(-c2cn3c(nc4ccccc43)c(-c3ccccc3)n2)cc1 | BT-549 breast | > 77 µM
Nc1ccc(-c2ccc(Nc3cc(S(=O)(=O)O)c(N)c4c3C(=O)c3ccccc3C4=O)cc2)c(S(=O)(=O)O)c1 | BT-549 breast | > 100 µM
COc1ccc(/C=N/NC(=O)c2ccccc2Nc2ccccc2C(=O)N/N=C/c2ccc(OC)cc2)cc1 | BT-549 breast | > 100 µM
COC(=O)c1ccc(/C=C2\Cc3ccccc3C2=O)cc1 | BT-549 breast | > 100 µM
Brc1cccc(Nc2ncnc3sc4c(c23)CCC(Nc2cccc(Br)c2)C4)c1 (stereo not drawn) | BT-549 breast | > 100 µM

For each of the items listed, what is its TGI?
1. CCN(CC)C(=S)SC(=S)N(CC)CC
2. CCOC(=O)c1ccc(NC(=O)O/N=C(/Cl)C(C)C)cc1
3. C[n+]1c2ccccc2c(C(=O)NC(CCCN=C(N)N)C(=O)O)c2ccccc21 (stereo not drawn)

77.4 µM
32.7 µM
> 100 µM

----------
System: SK-MEL-2 melanoma
Experiment: NCI tumour cell line growth inhibition, 48 h; in the data active means GI50 below about 0.43 µM; inactive means the rest
Tick one outcome: active, inactive

Worked set:
compound | subject-of-test | label
Cc1cc(S(N)(=O)=O)c(S/C(=N\Nc2ccc([N+](=O)[O-])cc2)c2ccc(O)cc2)cc1Cl | SK-MEL-2 melanoma | inactive
COc1ccc2c(c1)C(=O)c1c-2c(OCCN(C)C)nc2cc(OC)ccc12 | SK-MEL-2 melanoma | inactive
C[C@H](C(=O)N[C@@H](Cc1ccc(-c2ccccc2)cc1)C(=O)NC1CC(C)(C)N(C)C(C)(C)C1)c1ccc(-c2ccccc2)c(F)c1 | SK-MEL-2 melanoma | inactive
C=CCC(N[C@@H](CO)c1ccccc1)c1ccccn1 (stereo partly drawn) | SK-MEL-2 melanoma | inactive
Cc1ccc(Nc2[nH]c(C(=O)c3ccc(Cl)cc3)c(N)c2C(=S)Nc2ccccc2)nc1 | SK-MEL-2 melanoma | inactive

Dear all, I need the recorded test outcome for "COc1ccc(-c2nn(-c3ccc(NC(=O)Nc4ccc(Cl)c(Cl)c4)cc3)cc2-c2ccncc2)cc1Cl" , thank you.
inactive

Dear all, I need the recorded test outcome for "O=C1c2ccc3c4c(ccc(c24)C(=O)N1CCCNCc1ccccc1)C(=O)N(CCCNCc1ccccc1)C3=O" , thank you.
active

Dear all, I need the recorded test outcome for "COc1ccc2[nH]c3c(C)c4cc[n+](C)cc4c(C)c3c2c1" , thank you.
inactive

----------
Test system: OVCAR-3 ovarian
Experiment: NCI tumour cell line growth inhibition, 48 h
measured-property: TGI

Use the examples below as a reference point.
compound | subject-of-test | TGI
C=CCOc1ccc(C2(c3ccc(OCC=C)cc3)C(=O)Nc3ccccc32)cc1 | OVCAR-3 ovarian | > 10 µM
CN(C)c1ccc(/C=C/c2ccnc3ccc4ccccc4c23)cc1 | OVCAR-3 ovarian | > 100 µM

So what TGI did O=C1OCC2=C1C(c1cccc(C(F)(F)F)c1)c1cc3c(cc1N2CCO)OCO3 (stereo not drawn) get with OVCAR-3 ovarian?
> 50 µM

----------
Test system: HOP-62 NSCLC
Assay: NCI tumour cell line growth inhibition, 48 h
Assignment: determine reported TGI for the given compounds.

Use the examples below as a reference point.
compound | recorded-measurement
CCCCCCCC/C=C\CCCCCCCC(=O)OC[C@]1(CO)CCC(=O)O1 | > 100 µM
Nc1ccc(-c2ccc(Nc3cc(S(=O)(=O)O)c(N)c4c3C(=O)c3ccccc3C4=O)cc2)c(S(=O)(=O)O)c1 | > 100 µM
Cc1ccc(S(=O)(=O)NC(=O)NC(C(=O)O)C(C)O)cc1 (stereo not drawn) | > 100 µM
OC(COc1cccc2ccccc12)CN1CCN(c2ccc(Cl)cc2)CC1 (stereo not drawn) | 29.6 µM
C[N+]1(C)CCOC(O)(c2ccccc2)C1 (stereo not drawn) | > 100 µM
C=CC[N+]1(CCO)CCN=C1CCCCCCCCCCCCC (stereo not drawn) | 3.09 µM
CC1(C)C(=O)N(O)C(C)(C)N1N=O | > 10 µM
COc1cc[c]([Sb]([Br])([CH]=C(C)C)([CH]=C(C)C)[CH]=C(C)C)cc1 | > 100 µM

For each of the items listed, what is its TGI?
1. O=S(Nc1ccccc1)c1ccc(-c2ccccc2)cc1 (stereo not drawn)
2. COc1ccc(OC)c(/C=C/C(=O)C(C)(C)C)c1
3. Cc1cc(C)c(S(=O)(=O)N(CCCCCCN)OCCCN)c(C)c1

1. > 100 µM
2. 50.8 µM
3. 46 µM

For each of the items listed, what is its TGI?
1. COc1ccc(S(=O)(=O)NC2=NCCN2C(=S)SN2CCn3c2nsc3=S)cc1OC
2. COc1cc(C2=C(C)[C@@H]3CN(CC=C3c3ccc(Cl)cc3)C2)c(S(=O)(=O)O)cc1OC

1. 78.3 µM
2. > 100 µM

----------
Assignment: determine reported TGI for the given molecules.
System: MCF7 breast
Assay: NCI tumour cell line growth inhibition, 48 h
Give bare numbers, in µM.

molecule | TGI (µM)
CC(C)(C)OC(=O)N1CC(Cn2cc(C(F)(F)F)c3c(Cl)ncnc32)C1 | 6.15
C[n+]1c2cc(N)ccc2cc2ccc(N)cc21 (tested in a mixture with another compound) | 17.9
Cc1cc(S(N)(=O)=O)c(S/C(=N\Nc2ccc([N+](=O)[O-])cc2)c2ccc(O)cc2)cc1Cl | 5.06

From here, focus on the item given below.
Quick one: TGI of "CCc1cccc(CC)c1Nc1nc2c(s1)C(=O)c1ccccc1C2=O" ?
52

----------
Tested on: SF-539 CNS
Experiment: NCI tumour cell line growth inhibition, 48 h
measured-property: TGI

Use the examples below as a reference point.
compound | measured-property | recorded-measurement
O=C1N(CN2CCOCC2)CN(CN2CCOCC2)C(=O)N1Cc1ccc(-c2ccc(CN3C(=O)N(CN4CCOCC4)CN(CN4CCOCC4)C3=O)cc2)cc1 | TGI | > 74.3 µM
CCC(C(=O)c1cccs1)C(O)(C(F)(F)F)C(F)(F)F (stereo unspecified) | TGI | > 100 µM
CC(C)(Cl)C(Br)CCC(CBr)=C(Cl)CCl (mixture of isomers) | TGI | 4.07 µM

For each of the items listed, what is its TGI?
1. Cc1cc2c(=O)cc(-c3ccc(C(F)(F)F)cc3)oc2c(C(=O)O)c1C
2. COc1cc(-c2cc(-c3nc4cc(Cl)c(Cl)cc4[nH]3)[nH]n2)cc(OC)c1OC
3. COc1cc(-c2nc3ccccc3[nH]2)ccc1OCC(=O)N=Nc1c(O)[nH]c2ccc(Cl)cc12
4. COc1ccc(C2C3=C(COC3=O)OC(C)(C)Oc3cc4c(cc32)OCO4)cc1 (stereo unspecified)
5. CC(=O)/C(N=Nc1ccc(-n2c(C)nc3ccc(Br)cc3c2=O)cc1)=C(/C)O

> 100 µM
13.4 µM
3.1 µM
> 72.7 µM
> 100 µM

For each of the items listed, what is its TGI?
1. Clc1ccccc1C1N2CCCCC2[C@@H]2c3[nH]c4ccccc4c3CCN12 (stereo partly specified)
2. Cc1ccc(C(=O)OC(C)C)cc1N=NN(C)C
3. CN(C)Cc1cc(N=Nc2ccccc2Cl)ccc1O

1: 30.9 µM; 2: > 100 µM; 3: 59.5 µM

----------
Assignment: determine reported log10 TGI for the given compounds.
Tested on: U251 CNS
Test: NCI tumour cell line growth inhibition, 48 h
Where a SMILES comes first, the peptide text is derived from it. The star is where a group is joined. Boc = CC(C)(C)OC(=O)*
// stored as log10 of TGI expressed in µM

Use the examples below as a reference point.
compound | log10 TGI
Clc1nc(Cl)c2ncn(C/C=C/Cn3cnc4c(Cl)nc(Cl)nc43)c2n1 | 1.49
COc1cc(C(C)(C)C)cc(OC)c1C(O)(c1c(OC)cc(C(C)(C)C)cc1OC)c1c(OC)cc(C(C)(C)C)cc1OC | 0.09
CC(C)=CCc1c(O)ccc2c1OC1c3ccc(O)c(CC=C(C)C)c3OCC21 (configuration not stated) | 1.33
COC(=O)C(Cc1c[nH]c2ccccc12)NC(=O)C(Cc1c[nH]c2ccccc12)NC(=O)C(Cc1c[nH]c2ccccc12)NC(=O)OC(C)(C)C (stereo not drawn) (Boc-Trp-Trp-Trp-OMe; configuration not given here) | 1.51
NCCn1ccc(NC(c2ccccc2)(c2ccccc2)c2ccccc2)nc1=O | 1.60

For each of the items listed, what is its log10 TGI?
1. CCCCCCCCCCCCC/C=C1\C[C@H](O)COC1=O
2. O=C(C[C@@]1(O)C(=O)Nc2c(Cl)ccc(Cl)c21)c1ccc(C2CC2)cc1
3. CC(C)(Cl)C(Br)CCC(CBr)=C(Cl)CCl (mixture of isomers)
4. COc1cc(OC)cc(-c2ccc(-c3ccc(C(=N)N)s3)s2)c1
5. CCN1CCC2(CC1)NC(=O)c1c(c3ccc(Cl)c(Cl)c3n1C)C2C#N (configuration not stated)

1. 1.51
2. 1.21
3. 0.50
4. 0.24
5. 1.08
